STUDY SYSTEM: human Flt-3 (Homo sapiens)
Construct: expressing the amino acid region amino acids 563-993 of the cytoplasmic kinase domain of human Flt-3; made in house; host or cells: Sf9 (baculovirus)
ASSAY METHOD TEXT: Flt3 kinase inhibition, GST-Flt-3, 33P incorporation into poly(Glu,Tyr)
Assay type: biochemical
EXPERIMENTAL SETUP: Table 4; read-out: Flt-3, activity (IC50 for kinase inhibition)
pIC50: −log10 of the molar value.
Reported pIC50 values are given for each entry in this list.

# lookup: pIC50 of CN1CCN(c2cccc(-c3cnn4c(N)c(-c5ccsc5)cnc34)c2)CC1 > 5.00

CN1CCN(c2cccc(-c3cnn4c(N)c(-c5ccc(O)cc5)cnc34)c2)CC1 , same question. > 5.00

###

STUDY SYSTEM: human Flt-3 (Homo sapiens)
Construct: expressing the amino acid region amino acids 563-993 of the cytoplasmic kinase domain of human Flt-3; made in house; host or cells: Sf9 (baculovirus)
ASSAY METHOD TEXT: Flt3 kinase inhibition, GST-Flt-3, 33P incorporation into poly(Glu,Tyr)
Type: biochemical
EXPERIMENTAL SETUP: Table 5; read-out: Flt-3, IC50 class
ASSAY METRIC: IC50

Answered cases to consult:
Cc1nc2c(-c3cccc(N4CCC(N5CCCC5)CC4)c3)cnn2c(N)c1-c1cccc(Cl)c1 ... > 10 µM
Cc1nc2c(-c3cccc(N4CCN(C)CC4)c3)cnn2c(N)c1-c1cccc(Br)c1 ... > 10 µM
CN1CCN(c2cccc(-c3cnn4c(N)c(-c5ccccc5Cl)cnc34)c2)CC1 ... < 1 µM
Cc1nc2c(-c3ccc(N4CCN(C)CC4)cc3)cnn2c(N)c1-c1ccc(F)c(Cl)c1 ... > 10 µM
COc1ccc(-c2cnn3c(N)c(-c4ccc(F)c(Cl)c4)c(C)nc23)cc1OC ... > 10 µM
CN1CCN(c2cccc(-c3cnn4c(N)c(Cc5cccc(Br)c5)cnc34)c2)CC1 ... > 10 µM
Cc1nc2c(-c3cccc(N4CCC(N5CCCC5)CC4)c3)cnn2c(N)c1-c1ccc(F)cc1 ... > 10 µM

With those in mind, consider the next compound.
Would you kindly share the measured IC50 for COc1ccc(-c2cnn3c(N)c(-c4ccc(F)c(Cl)c4)c(C)nc23)cc1 ? > 10 µM

###

STUDY SYSTEM: human Flt-3 (Homo sapiens, UniProt P36888)
Construct: expressing the amino acid region amino acids 563-993 of the cytoplasmic kinase domain of human Flt-3; made in house; host or cells: Sf9 (baculovirus)
Sequence (P36888 563-993): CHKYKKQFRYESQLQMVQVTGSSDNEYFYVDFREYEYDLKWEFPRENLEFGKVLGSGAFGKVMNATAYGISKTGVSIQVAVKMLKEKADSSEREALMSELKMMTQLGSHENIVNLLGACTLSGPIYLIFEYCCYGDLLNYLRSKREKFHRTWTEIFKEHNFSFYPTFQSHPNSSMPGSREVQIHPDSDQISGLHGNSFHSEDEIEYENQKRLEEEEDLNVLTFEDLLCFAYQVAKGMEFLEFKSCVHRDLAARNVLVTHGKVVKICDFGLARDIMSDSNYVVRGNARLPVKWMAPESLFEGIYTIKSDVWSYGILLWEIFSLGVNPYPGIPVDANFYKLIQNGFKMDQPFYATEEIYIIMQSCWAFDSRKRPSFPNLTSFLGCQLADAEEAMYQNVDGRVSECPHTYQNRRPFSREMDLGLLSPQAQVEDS
ASSAY METHOD TEXT: Flt3 kinase inhibition, GST-Flt-3, 33P incorporation into poly(Glu,Tyr)
Assay type: biochemical
EXPERIMENTAL SETUP: Table 5; read-out: Flt-3, IC50 class
pIC50: −log10 of the molar value.
The following compounds are shown together with reported pIC50 values.

Here's what some known entries look like.
Cc1nc2c(-c3ccc(N4CCN(C)CC4)cc3)cnn2c(N)c1-c1ccc(F)cc1 [Example 79] ... < 5.00
COc1ccc(-c2cnn3c(N)c(-c4cccc(Cl)c4)c(C)nc23)cc1 [Example 88] ... < 5.00
COc1cc(N2CCN(C)CC2)ccc1-c1cnn2c(N)c(-c3cccc(O)c3)cnc12 [Example 76] ... > 6.00

# context switch: different compound, same pIC50
For the record Cc1nc2c(-c3cccc(N4CCN(CCO)CC4)c3)cnn2c(N)c1-c1ccc(F)c(F)c1 [Example 101] , what value of pIC50 is listed for human Flt-3 (Homo sapiens, UniProt P36888)? < 5.00

Each recorded value in this set is attributed to patent US20090099167A1.
